Provide the reported CC50 of each item.
system: HOP-92; assay: NCI60 anti-cancer screening; details: Homo sapiens, HOP-92, read-out: LC 50%
Express the result in µM but write the number alone.

Qu. Tell me CC50 of COC(=O)c1ccc(C2c3[nH]c4ccccc4c3CC(C(=O)OC)N2C(=O)CCl)cc1 (stereo not shown) when tested on HOP-92.
Ans. 5.85

Qu. Report the value of CC50 obtained on HOP-92 for C=C1CCC2C(C)(C)CCC[C@]2(C)C1CC/C(C)=C\CC/C(C)=N/NC(N)=S (stereo partly shown) .
Ans. 3.96
